Assay: Cytotoxicity against human A549 cells assessed as cell growth at […] incubated for 48 hrs by Celltiter-Glo luminescence assay relative to control
Type: cell-based
Parameters: dose or concentration left out as unconfirmed
Details: read-out: Activity
reported.endpoint: viability at 48 h

The following compounds have reported results that may help.
chemical.smiles | reported.endpoint | result
O=c1c(O)c(-c2csc3ccccc23)oc2ccc(F)cc12 | viability at 48 h | 99.1%
CCOc1ccc2c(=O)c(O)c(-c3csc4ccccc34)oc2c1 | viability at 48 h | 11.9%

Entry O=c1c(O)c(-c2c[nH]c3ccccc23)oc2ccc(O)cc12 has what viability at 48 h?
5.87%

Entry Cc1ccc2oc(-c3ccc(C)s3)c(O)c(=O)c2c1 has what viability at 48 h?
30.9%

Entry O=c1c(O)c(-c2csc3ccccc23)oc2ccc(Cl)cc12 has what viability at 48 h?
126%

---

Parameter: inhibition at 0.5 h, 10 µM. Scope: all listed entries.
Biological target: CYP2C9 (Homo sapiens, UniProt P11712)
Sequence (P11712 whole entry): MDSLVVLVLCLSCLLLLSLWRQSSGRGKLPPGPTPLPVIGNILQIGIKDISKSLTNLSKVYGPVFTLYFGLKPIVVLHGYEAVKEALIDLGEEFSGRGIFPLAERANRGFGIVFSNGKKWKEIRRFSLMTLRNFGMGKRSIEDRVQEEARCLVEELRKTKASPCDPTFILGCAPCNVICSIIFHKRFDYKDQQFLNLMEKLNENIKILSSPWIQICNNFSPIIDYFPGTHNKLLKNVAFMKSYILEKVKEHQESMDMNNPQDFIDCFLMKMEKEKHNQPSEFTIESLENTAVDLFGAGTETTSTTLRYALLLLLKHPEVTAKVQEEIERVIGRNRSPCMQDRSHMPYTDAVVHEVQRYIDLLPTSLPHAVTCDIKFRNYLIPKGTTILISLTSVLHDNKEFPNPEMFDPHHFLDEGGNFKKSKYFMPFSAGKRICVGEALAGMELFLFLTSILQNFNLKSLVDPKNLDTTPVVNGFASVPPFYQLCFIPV
Assay: Inhibition of human microsomal CYP2C9 expressed in baculovirus infected insect cells at 10 uM using luciferin-H as substrate preincubated with enzyme/substrate mixture for 30 mins followed by further incubation with NADPH for 30 mins by CYP450 luciferase Glo assay relative to control
Format: ADME
Settings: probe luciferin-H
Hi, when you answer, please include the unit after the number. Thanks!

The following compounds have reported results that may help.
chemical.smiles | result
Cc1ccc2oc(-c3csc4ccccc34)c(O)c(=O)c2c1 | 19.4%
O=c1c(O)c(-c2c[nH]c3ccccc23)oc2ccc(O)cc12 | 40.2%
COc1ccc2oc(-c3csc4ccccc34)c(OC(=O)C(C)(C)C)c(=O)c2c1 | 33.6%
CCOc1c(-c2csc3ccccc23)oc2ccc(OC)cc2c1=O | 14.1%
COc1ccc2oc(-c3csc4ccccc34)c(OC(C)=O)c(=O)c2c1 | -229%

Entry COc1ccc2oc(-c3cn(C)c4ccccc34)c(O)c(=O)c2c1 has what inhibition at 0.5 h, 10 µM?
-0.02%

---

Parameter: Activity. Scope: all listed entries.
Test system: 786-0
Test: Mitochondrial toxicity in human 786-0 cells at 10 uM incubated with compound for 6 hrs followed by incubation with MitoTracker Red chloromethyl-X-rosamine dye for 45 mins by imaging analysis
Type: cell-based
Conditions: 786-0, 6 h
Use % as the unit, but write only the number.

The following compounds have reported results that may help.
chemical.smiles | study.target | measured.number
COc1ccc2oc(-c3csc4ccccc34)c(OC(C)=O)c(=O)c2c1 | 786-0 | -27.27
Cc1csc(-c2oc3ccc(O)cc3c(=O)c2O)c1 | 786-0 | 4.24
CCCCCCCCCCCCCCCCOP(=O)([O-])OCC[N+](C)(C)C | 786-0 | 3.4
COc1ccc2oc(-c3cn(C)c4ccccc34)c(O)c(=O)c2c1 | 786-0 | -1.87
COc1ccc2oc(-c3cccc(-c4ccc(OC)c(OC)c4)c3)c(O)c(=O)c2c1 | 786-0 | -9.66
O=c1c(O)c(-c2csc3ccccc23)oc2ccccc12 | 786-0 | -22.23

Entry COc1ccc2oc(-c3ccc4ncccc4c3)c(O)c(=O)c2c1 has what Activity?
-7.05

Entry CCCCC(=O)Oc1c(-c2csc3ccccc23)oc2ccc(OC)cc2c1=O has what Activity?
0.75

Entry COc1ccc2c(=O)c(O)c(-c3ccc4c(c3)OCO4)oc2c1 has what Activity?
6.41

Entry Cc1csc(-c2oc3ccc(C)cc3c(=O)c2O)c1 has what Activity?
-13.79

Entry O=c1c(O)c(-c2csc3ccccc23)oc2ccc(F)cc12 has what Activity?
-23.6

---

Parameter: inhibition at 0.5 h, 10 µM. Scope: all listed entries.
Biological target: UniProt P08684
Sequence (P08684 whole entry): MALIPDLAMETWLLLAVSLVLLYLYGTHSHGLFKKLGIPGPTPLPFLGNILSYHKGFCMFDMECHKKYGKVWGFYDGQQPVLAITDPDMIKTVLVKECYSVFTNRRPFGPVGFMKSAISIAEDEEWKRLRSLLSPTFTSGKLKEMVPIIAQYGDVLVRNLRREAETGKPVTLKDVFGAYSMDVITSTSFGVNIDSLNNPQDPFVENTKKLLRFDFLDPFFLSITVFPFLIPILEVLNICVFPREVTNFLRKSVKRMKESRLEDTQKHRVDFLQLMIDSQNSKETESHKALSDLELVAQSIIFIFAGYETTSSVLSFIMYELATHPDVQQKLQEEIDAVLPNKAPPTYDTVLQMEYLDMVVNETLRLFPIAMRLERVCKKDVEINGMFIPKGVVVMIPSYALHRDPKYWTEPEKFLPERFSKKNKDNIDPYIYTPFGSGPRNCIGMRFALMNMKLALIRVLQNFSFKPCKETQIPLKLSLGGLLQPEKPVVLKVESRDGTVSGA
Assay: Inhibition of human microsomal CYP3A4 expressed in baculovirus infected insect cells at 10 uM using luciferin-IPA as substrate preincubated with enzyme/substrate mixture for 30 mins followed by further incubation with NADPH for 30 mins by CYP450 luciferase Glo assay relative to control
Type: ADME
Details: probe luciferin-IPA
Use % as the unit, but write only the number.

The following compounds have reported results that may help.
chemical.smiles | inhibition at 0.5 h, 10 µM [%]
COc1cccc2oc(-c3cc(C)cs3)c(O)c(=O)c12 | 24.5
O=c1c(O)c(-c2csc3ccccc23)oc2ccccc12 | -1.84
COc1ccc2c(=O)c(O)c(-c3ccc4c(c3)OCO4)oc2c1 | 55.5
COc1ccc2oc(-c3cccc(-c4ccc5c(c4)OCO5)c3)c(O)c(=O)c2c1 | 44.6

We next turn to a different compound, shown below.
Entry COc1ccc2oc(-c3csc4ccccc34)c(OC(C)=O)c(=O)c2c1 has what inhibition at 0.5 h, 10 µM?
42

---

Parameter: inhibition at 0.5 h, 10 µM. Scope: all listed entries.
Target: CYP1A2 (Homo sapiens, UniProt P05177)
Sequence (P05177 whole entry): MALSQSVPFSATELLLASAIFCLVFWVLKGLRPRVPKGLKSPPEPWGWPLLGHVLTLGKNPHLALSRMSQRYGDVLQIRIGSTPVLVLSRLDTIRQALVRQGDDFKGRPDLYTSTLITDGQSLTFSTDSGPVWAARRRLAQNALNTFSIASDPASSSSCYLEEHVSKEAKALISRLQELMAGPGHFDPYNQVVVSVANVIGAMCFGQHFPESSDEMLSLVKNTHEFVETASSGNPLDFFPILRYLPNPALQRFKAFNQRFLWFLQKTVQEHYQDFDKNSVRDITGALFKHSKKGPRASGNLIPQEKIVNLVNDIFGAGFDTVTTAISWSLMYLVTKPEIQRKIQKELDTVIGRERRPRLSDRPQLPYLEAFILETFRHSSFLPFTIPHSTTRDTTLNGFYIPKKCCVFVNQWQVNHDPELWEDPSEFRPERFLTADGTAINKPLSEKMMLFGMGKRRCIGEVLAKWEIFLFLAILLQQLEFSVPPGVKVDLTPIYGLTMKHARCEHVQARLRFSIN
Assay: Inhibition of human microsomal CYP1A2 expressed in baculovirus infected insect cells at 10 uM using luciferin-1A2 as substrate preincubated with enzyme/substrate mixture for 30 mins followed by further incubation with NADPH for 30 mins by CYP450 luciferase Glo assay relative to control
Type: ADME
Conditions: probe luciferin-1A2
Use % as the unit, but write only the number.

The following molecules have reported results that may help.
chemical.smiles | study.target | inhibition at 0.5 h, 10 µM [%]
Cc1ccc2oc(-c3ccc(C)s3)c(O)c(=O)c2c1 | CYP1A2 (Homo sapiens, UniProt P05177) | 96.5
COc1ccc2c(=O)c(O)c(-c3sccc3C)oc2c1 | CYP1A2 (Homo sapiens, UniProt P05177) | 108
O=c1c(O)c(-c2ccco2)oc2ccc(O)cc12 | CYP1A2 (Homo sapiens, UniProt P05177) | 96.7
Cc1ccc2c(=O)c(O)c(-c3csc4ccccc34)oc2c1 | CYP1A2 (Homo sapiens, UniProt P05177) | 94.2
O=c1c(O)c(-c2csc3ccccc23)oc2ccc(Cl)cc12 | CYP1A2 (Homo sapiens, UniProt P05177) | 84.7

Entry COc1cccc2oc(-c3cc(C)cs3)c(O)c(=O)c12 has what inhibition at 0.5 h, 10 µM?
106

Entry COc1ccc2oc(-c3ccco3)c(O)c(=O)c2c1 has what inhibition at 0.5 h, 10 µM?
104

Entry COc1ccc2oc(-c3csc4ccccc34)c(OC(=O)N(C)C)c(=O)c2c1 has what inhibition at 0.5 h, 10 µM?
61.1

Entry O=c1c(O)c(-c2ccco2)oc2cc(O)ccc12 has what inhibition at 0.5 h, 10 µM?
93.5

Entry COc1ccc2oc(-c3c[nH]c4ccccc34)c(O)c(=O)c2c1 has what inhibition at 0.5 h, 10 µM?
101

Entry CCCCC(=O)Oc1c(-c2csc3ccccc23)oc2ccc(OC)cc2c1=O has what inhibition at 0.5 h, 10 µM?
83.3

Entry CCOc1c(-c2csc3ccccc23)oc2ccc(OC)cc2c1=O has what inhibition at 0.5 h, 10 µM?
92.4

Entry COc1ccc2c(=O)c(O)c(-c3ccco3)oc2c1 has what inhibition at 0.5 h, 10 µM?
103

Entry COc1ccc2oc(-c3cccc(-c4ccc(OC)c(OC)c4)c3)c(O)c(=O)c2c1 has what inhibition at 0.5 h, 10 µM?
83.1

---

Experiment: Selectivity index, ratio of CC50 for human THP1 cells to EC50 for Trypanosoma brucei bloodstream form
Format: toxicity
Conditions: read-out: Ratio CC50/EC50
Parameter: selectivity ratio. Scope: all listed entries.

chemical.smiles | selectivity ratio
COc1ccc2oc(-c3c[nH]c4ccccc34)c(O)c(=O)c2c1 | 8
COc1ccc2oc(-c3cccc(-c4ccc(OC)c(OC)c4)c3)c(O)c(=O)c2c1 | 8

We next turn to a different compound, shown below.
Entry COc1ccc2c(=O)c(O)c(-c3cc(C)cs3)oc2c1 has what selectivity ratio?
8

---

Biological target: CYP2C9 (Homo sapiens)
Assay: Inhibition of human microsomal CYP2C9 expressed in baculovirus infected insect cells at 10 uM using luciferin-H as substrate preincubated with enzyme/substrate mixture for 30 mins followed by further incubation with NADPH for 30 mins by CYP450 luciferase Glo assay relative to control
Type: ADME
Settings: probe luciferin-H
reported.endpoint: inhibition at 0.5 h, 10 µM (%)
Use % as the unit, but write only the number.

The following molecules have reported results that may help.
chemical.smiles | inhibition at 0.5 h, 10 µM [%]
CCCCC(=O)Oc1c(-c2csc3ccccc23)oc2ccc(OC)cc2c1=O | 48.3
O=c1c(O)c(-c2ccco2)oc2cc(O)ccc12 | 83.7
O=c1c(O)c(-c2csc3ccccc23)oc2ccc(F)cc12 | 25.4
Cc1csc(-c2oc3ccc(O)cc3c(=O)c2O)c1 | 40.1
COc1ccc2c(=O)c(O)c(-c3sccc3C)oc2c1 | 45.5

Entry COc1ccc2oc(-c3csc4ccccc34)c(O)c(=O)c2c1 has what inhibition at 0.5 h, 10 µM?
-10

Entry COc1ccc2oc(-c3cc(C)cs3)c(O)c(=O)c2c1 has what inhibition at 0.5 h, 10 µM?
29.2

Entry COc1ccc2c(=O)c(O)c(-c3ccc4c(c3)OCO4)oc2c1 has what inhibition at 0.5 h, 10 µM?
72.7

Entry COc1ccc2c(=O)c(O)c(-c3csc4ccccc34)oc2c1 has what inhibition at 0.5 h, 10 µM?
28.1

Entry CCOc1ccc2c(=O)c(O)c(-c3csc4ccccc34)oc2c1 has what inhibition at 0.5 h, 10 µM?
23

Entry COc1cccc2oc(-c3cc(C)cs3)c(O)c(=O)c12 has what inhibition at 0.5 h, 10 µM?
53.5

Entry O=c1c(O)c(-c2ccco2)oc2ccc(O)cc12 has what inhibition at 0.5 h, 10 µM?
47.6

Entry O=c1c(O)c(-c2csc3ccccc23)oc2ccc(Br)cc12 has what inhibition at 0.5 h, 10 µM?
25.3

Entry Cc1ccc2c(=O)c(O)c(-c3csc4ccccc34)oc2c1 has what inhibition at 0.5 h, 10 µM?
37

Entry O=c1c(O)c(-c2csc3ccccc23)oc2ccccc12 has what inhibition at 0.5 h, 10 µM?
28.9

Entry Cc1ccsc1-c1oc2cc(O)ccc2c(=O)c1O has what inhibition at 0.5 h, 10 µM?
43.8

Entry COc1ccc2oc(-c3cccc(-c4ccc5c(c4)OCO5)c3)c(O)c(=O)c2c1 has what inhibition at 0.5 h, 10 µM?
25.8

Entry COc1ccc2oc(-c3ccco3)c(O)c(=O)c2c1 has what inhibition at 0.5 h, 10 µM?
71.3
